- Protocol Summary: NCI Yeast Anticancer Drug Screen. Data for the mec2-1 strain (AID 157)
- Experimental Context: S. cerevisiae mec2-1 strain, at 50.0 µM, stronger effect = higher value
Compounds without any hit were thinned out: in the full panel of roughly 79,000, 15% have a hit.
Measured growth inhibition, listed per entry.
Hi! Could you send only the number? It should be in %, unit omitted.

# Molecule, growth inhibition [%]
data = [
    ("Cn1cc(C2(C)CC(C)(C)c3c2n(C)c2ccccc32)c2ccccc21 (stereo unspecified)", -16.1),
    ("O=C1c2cccc3cc([N+](=O)[O-])cc(c23)C(=O)N1C(Cc1ccccc1)c1ccccc1 (stereo unspecified)", -6.05),
    ("O=c1cc(-c2ccccc2)c2ccc(O)cc2o1", 1.45),
    ("COc1ccc(/C=C/c2onc3c(=O)n(C)nc(-c4ccccc4)c23)cc1", -25.1),
    ("NC(=S)SCCC(=O)N1CCCC1", -10.1),
]

Okay, next one:
Problem: Identify growth inhibition associated with the molecule COC(=O)c1ccc(C)[n+](C2OC(COC(=O)c3ccccc3)C(OC(=O)c3ccccc3)C2OC(=O)c2ccccc2)c1 (stereo unspecified)
Result: 3.45

----------
- Protocol Summary: NCI Yeast Anticancer Drug Screen. Data for the bub3 strain (AID 167)
- Experimental Context: S. cerevisiae bub3 mutant strain, at 50.0 µM, stronger effect = higher value
- Procedure: Growth inhibition of yeast strains with defined genetic alterations is measured as a screen for potential anti-cancer activity. Selected strains with alterations in DNA damage repair or cell cycle control were exposed to compounds and growth inhibition was measured relative to vehicle treated controls. The strain used in this assay is bub3
Compounds without any hit were thinned out: in the full panel of roughly 79,000, 15% have a hit. Where a SMILES comes first, the peptide text is derived from it. [ ]: non-standard residue; d: D form. The star is where a group is joined. ξ: configuration not given here. NMeY = CN[C@@H](Cc1ccc(O)cc1)C(=O)O; Cbz = O=C(OCc1ccccc1)*; ξA = CC(N)C(=O)O
Measured growth inhibition, listed per entry.
Hi! Could you send only the number? It should be in %, unit omitted.

# count of solved cases: 3
# Compound, Value Measured
records = [
    ("C[N+]1(C)CCOC(O)(c2ccccc2)C1 (centres undefined)", -59.1),
    ("CCOC(=O)c1sc(SSc2nc(C)c(C(=O)OCC)s2)nc1C", 4.75),
    ("COc1ccc(C[C@@H](C(=O)N[C@@H](C)C(N)=O)N(C)C(=O)[C@@H]2CCCN2C(=O)[C@H](CC(C)C)NC(=O)C(C)NC(=O)OCc2ccccc2)cc1 (some centres undefined) (Cbz-[ξA]LP[NMeY](Me)A-NH2)", -38.2),
]

Okay, next one:
Problem: Identify growth inhibition associated with the compound O=C(O)COc1c(Cl)cc(Cl)c2cccnc12
Result: -63.2

----------
- Protocol Summary: NCI Yeast Anticancer Drug Screen. Data for the mlh1 rad18 strain (AID 175)
- Experimental Context: S. cerevisiae mlh1 rad18 strain growth inhibition; at 50.0 µM; stronger effect = higher value
Compounds without any hit were thinned out: in the full panel of roughly 79,000, 15% have a hit.
Property Measured: growth inhibition (%)
Hi! Could you send only the number? It should be in %, unit omitted.

# Compound, growth inhibition, %
rows = [
    ("Cc1ccc(C2CC(c3ccc([N+](=O)[O-])cc3)=Nc3ccccc3S2)cc1 (configuration not stated)", 8.6),
    ("O=C(Cn1c2c(c3ccccc31)CCCC2)NC1CCCCC1", 9.7),
    ("CCN(CC)CCCN1CCc2c([nH]c3ccccc23)C1c1cccnc1 (configuration not stated)", -17.4),
    ("CC1=CC(=O)c2c(C=O)c(O)c(O)c(C(C)C)c2C1=O", 90.8),
]

Okay, next one:
Problem: Identify growth inhibition associated with the compound O=C(O)CCN1C(=S)CSC1=S
Result: -24.2
